Exercise: for every item that follows, state its recorded EC50 hGIP-R.
- EXPERIMENTAL_TARGET: T1, human GIP receptor (human, UniProt P48546 22-466)
- T1 sequence (looked up): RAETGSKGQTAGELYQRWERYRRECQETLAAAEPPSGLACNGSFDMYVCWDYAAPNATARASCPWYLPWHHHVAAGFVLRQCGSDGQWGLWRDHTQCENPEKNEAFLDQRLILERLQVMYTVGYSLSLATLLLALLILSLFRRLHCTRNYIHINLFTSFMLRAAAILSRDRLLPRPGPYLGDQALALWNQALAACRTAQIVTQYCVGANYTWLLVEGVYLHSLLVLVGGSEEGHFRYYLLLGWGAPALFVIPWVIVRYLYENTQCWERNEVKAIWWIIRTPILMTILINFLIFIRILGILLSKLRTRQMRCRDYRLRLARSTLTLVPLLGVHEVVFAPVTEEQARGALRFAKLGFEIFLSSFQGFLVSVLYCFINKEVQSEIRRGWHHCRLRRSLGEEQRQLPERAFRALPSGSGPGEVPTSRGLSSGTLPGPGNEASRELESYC
- ASSAY_SUMMARY: cell-based or functional assay
Give bare numbers, in nM.

{"BINDER": "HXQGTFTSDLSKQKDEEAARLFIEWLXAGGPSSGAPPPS (D-Ser at 2; Lys 14 side chain K(γE-x70) = (S)-4-Carboxy-4-octadecanoylamino-butyryl-; Aib at 27; C-terminal amide) [SEQ ID NO: 13]", "MEASURED_ATTRIBUTE": "EC50 hGIP-R", "QUANTITATIVE_RESULT": 2.54}
{"BINDER": "HXQGTFTSDLSKQKDEEAARLFIEWLXKXGPSSGAPPPS (D-Ser at 2; Lys 14 side chain K(γE-x70) = (S)-4-Carboxy-4-octadecanoylamino-butyryl-; Aib at 27; D-Ala at 29; C-terminal amide) [SEQ ID NO: 25]", "MEASURED_ATTRIBUTE": "EC50 hGIP-R", "QUANTITATIVE_RESULT": 8.32}
{"BINDER": "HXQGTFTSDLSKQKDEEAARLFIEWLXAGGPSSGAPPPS (D-Ser at 2; Lys 14 side chain K(AEEAc-AEEAc- E-x53) = (2-{2-[2-(2-{2-[(4S)-4-Carboxy-4-hexadecanoylamino-butyrylamino]-ethoxy}-ethoxy)-acetylamino]-ethoxy}-ethoxy)-acetyl; Aib at 27; C-terminal amide) [SEQ ID NO: 20]", "MEASURED_ATTRIBUTE": "EC50 hGIP-R", "QUANTITATIVE_RESULT": 20.2}
{"BINDER": "HXQGTFTSDLSKQKDEEAARLFIEWLXSTGPSSGAPPPS (D-Ser at 2; Lys 14 side chain K(γE-γE-x53) = (S)-4-Carboxy-4-((S)-4-carboxy-4-hexadecanoylamino-butyrylamino)-butyryl-; Aib at 27; C-terminal amide) [SEQ ID NO: 18]", "MEASURED_ATTRIBUTE": "EC50 hGIP-R", "QUANTITATIVE_RESULT": 27.5}
{"BINDER": "HXQGTFTSDLSKQKDEEAARLFIEWLXSGGPSSGAPPPS (D-Ser at 2; Lys 14 side chain K(γE-γE-x53) = (S)-4-Carboxy-4-((S)-4-carboxy-4-hexadecanoylamino-butyrylamino)-butyryl-; Aib at 27; C-terminal amide) [SEQ ID NO: 15]", "MEASURED_ATTRIBUTE": "EC50 hGIP-R", "QUANTITATIVE_RESULT": 5.5}

# context switch: different binder, same EC50 hGIP-R
Problem: For the binder shown here, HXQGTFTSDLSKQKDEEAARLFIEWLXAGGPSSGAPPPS (D-Ser at 2; Lys 14 side chain K(AEEAc-AEEAc-AEEAc-x70) = [2-(2-{2-[2-(2-{2-[2-(2-Octadecanoylamino-ethoxy)-ethoxy]-acetylamino}-ethoxy)-ethoxy]-acetylamino}-ethoxy)-ethoxy]-acetyl-; Aib at 27; C-terminal amide) [SEQ ID NO: 22] , give the reported EC50 hGIP-R.
Result: 4.16

Data origin: patent US20150322128A1
